assay: inhibitors of Toxoplasma growth in IFN-γ-primed HeLa – cell-based, ME49Luc, luciferase, 72 h, dose response (AID 1259418)
assay context: T. gondii ME49Luc in IFN-y HeLa, hits give low values, -100% = high-dose IFN-γ control wells; at 19.5 µM unless noted
Among all 3,400 compounds or so, about 840 (25%) were called active. Inconclusive results (about 11%) are left out. Only a sample is shown. Measured potencies and affinities stand elsewhere.
Documented max activity across a set of compounds

Cc1nc(-c2ccc(F)cc2)sc1-c1ccc(SCc2ccccc2F)nn1
-39.8% (inactive)
Cc1ccccc1-c1ccc(C2[C@@H]3CN(C(=O)C4CCOCC4)C[C@H]2N3)cc1 (stereo partly specified)
20.5% (inactive)
Cc1ccc(C)c(-c2coc(-c3ccc(NC(=O)Nc4cccc(F)c4)cc3)n2)c1
9.94% [at 2.6 µM] (inactive)
CCCNC(=O)N1CCc2nc(-c3ccc(OC)cc3)sc2C1
12.7% [at 10 µM] (inactive)
O=C(Nc1ccc(-c2nc(-c3ccccc3)co2)cc1)NC1CCCCC1
71.1% (inactive)
Cc1ccc(-c2coc(-c3ccc(NC(=O)NCc4ccc(F)cc4)cc3)n2)c(C)c1
-6.17% [at 0.16 µM] (inactive)

Problem: Give the measured max activity of O=C(Nc1ccc(-c2nc(-c3cccc(Br)c3)co2)cc1)Nc1ccccc1F .
Result: 6.98% (inactive)

Problem: Give the measured max activity of CCc1nc(-c2ccc(C(=O)N3CCC4(CC3)OCCO4)cc2)cs1 .
Result: 5.55% (inactive)

Problem: Give the measured max activity of COc1ccc(CNc2nc(SCc3cc(=O)n4cc(Cl)ccc4n3)nc3ccccc23)cc1 .
Result: 14.6% [at 5 µM] (inactive)

Problem: Give the measured max activity of Clc1cccc(CNc2ncnc3c2cnn3-c2ccccc2)c1 .
Result: 95.5% [at 10 µM] (inactive)

Problem: Give the measured max activity of NC(=O)C1(N2CCCCC2)CCN(c2ccc(NC(=O)c3cccc(Cl)c3)cc2C(=O)O)CC1 .
Result: 1% (inactive)

----------
assay: inhibitors of Toxoplasma growth in IFN-γ-primed HeLa – cell-based, ME49Luc, luciferase, 72 h, dose response (AID 1259418)
assay context: T. gondii ME49Luc in IFN-y HeLa, hits give low values, -100% = high-dose IFN-γ control wells; at 19.5 µM unless noted
Out of some 3,400 compounds screened, about 840 (25%) were called active. Not shown: some 11% with an inconclusive outcome. These entries were drawn from the full list. Potency and affinity values are given separately.
Documented max activity across a set of molecules

Field: example entries. Status: answers known.
CCOC(=O)C1CCN(c2nc(-c3ccc(Cl)cc3)nc3ccccc23)CC1
17% [at 0.35 µM] (inactive)
Cc1ccc(-c2coc(-c3ccc(NC(=O)C(C)C)cc3)n2)c(C)c1
-33.6% [at 5 µM] (inactive)
CN(C)c1ccc(-c2nc3c([nH]2)c(=O)n(C)c(=O)n3C)cc1
17.3% [at 10 µM] (inactive)
O=C(NCCc1csc(-c2ccccc2)n1)[C@H]1CSCN1S(=O)(=O)Cc1ccccc1
17.7% [at 2.6 µM] (inactive)
CCOC(=O)CSc1nc(NCc2ccc(Cl)cc2)c2ccccc2n1
29.6% (inactive)
CCN(C(=O)COc1nc(C)nc2ccccc12)c1ccccc1
18.8% [at 0.68 µM] (inactive)
CCc1ccc(S(=O)(=O)N2CSC[C@@H]2C(=O)NCCc2csc(-c3ccccc3)n2)cc1
-11.2% [at 0.68 µM] (inactive)
O=C(Cn1c(=O)c(S(=O)(=O)c2ccccc2)cc2ccccc21)NC1CCCCC1
2.73% (inactive)

Problem: Give the measured max activity of CCc1nc(OCC(=O)N(CC)c2ccccc2)c2ccccc2n1 .
Result: 9.96% [at 10 µM] (inactive)

Problem: Give the measured max activity of Cc1nc(OCC(=O)Nc2cccc(Cl)c2C)c2ccccc2n1 .
Result: 33.5% [at 0.16 µM] (inactive)

----------
Documented max activity across a set of compounds
assay: inhibitors of Toxoplasma growth in IFN-γ-primed HeLa – cell-based, ME49Luc, luciferase, 72 h, dose response (AID 1259418)
assay context: T. gondii ME49Luc in IFN-y HeLa, hits give low values, -100% = high-dose IFN-γ control wells; at 19.5 µM unless noted
Out of some 3,400 compounds screened, about 840 (25%) were called active. Another 11% or so got no clear call; they are omitted. The list is a sample of the results. Measured potencies and affinities stand elsewhere.

Field: example entries. Status: answers known.
Cc1oc(-c2cccc(Cl)c2)nc1CN1CCc2c(sc3c2CCCC3)C1c1ccccc1 (stereo not given)
20.4% (inactive)
Cc1ccc(CN2CC[C@H]3CO[C@@H](CNC(=O)C4CC4)[C@@H]3C2)cc1
18.5% (inactive)
Cc1ccc(CSC2=Nc3ccccc3C3=NC(CC(=O)NC4CCCCC4)C(=O)N23)c(C)c1 (stereo not given)
15.1% [at 5 µM] (inactive)

Problem: Give the measured max activity of CCc1nc(OCC(=O)Nc2ccc(Br)cc2)c2ccccc2n1 .
Result: 33.9% [at 0.68 µM] (inactive)

Problem: Give the measured max activity of COc1ccc(C(=O)Nc2ccc(-c3nc(-c4ccccc4)co3)cc2)cc1OC .
Result: 14.3% [at 0.16 µM] (inactive)

----------
Documented max activity across a set of molecules
assay: inhibitors of Toxoplasma growth in IFN-γ-primed HeLa – cell-based, ME49Luc, luciferase, 72 h, dose response (AID 1259418)
assay context: T. gondii ME49Luc in IFN-y HeLa, hits give low values, -100% = high-dose IFN-γ control wells; at 19.5 µM unless noted
Hit rate of the full screen: of about 3,400 compounds, about 840 (25%) were called active. Roughly 11% stayed inconclusive and do not appear here. Only a sample is shown. Entries with a potency or affinity are not part of this list.

CN1C(=O)c2cc(NC(=O)Cc3cccs3)ccc2OC[C@@H]2O[C@H](CC(=O)N[C@@H]3CCN(Cc4ccccc4)C3)CC[C@@H]21
12.6% [at 0.6 µM] (inactive)
Cc1ccc(-c2coc(-c3ccc(NC(=O)Nc4ccccc4F)cc3)n2)cc1
86.4% [at 10 µM] (inactive)
CCN1CCCC1CNC(=O)C1CCN(Cc2cc3ccccc3n2Cc2ccc(Cl)cc2)CC1 (centres undefined)
9.45% (inactive)

Problem: Give the measured max activity of O=C(NCCc1csc(-c2ccccc2)n1)[C@H]1CSCN1C(=O)CCc1ccccc1 .
Result: 14.8% [at 5 µM] (inactive)

Problem: Give the measured max activity of O=C(Nc1ccc(-c2nc(-c3ccccc3)co2)cc1)Nc1cccc(Br)c1 .
Result: 8.78% [at 10 µM] (inactive)

Problem: Give the measured max activity of Cc1nc(CCNC(=O)[C@H]2CCCN2S(=O)(=O)c2cccs2)cs1 .
Result: 7.39% [at 0.16 µM] (inactive)

----------
assay: inhibitors of Toxoplasma growth in IFN-γ-primed HeLa – cell-based, ME49Luc, luciferase, 72 h, dose response (AID 1259418)
assay context: T. gondii ME49Luc in IFN-y HeLa, hits give low values, -100% = high-dose IFN-γ control wells; at 19.5 µM unless noted
About 840 (25%) of roughly 3,400 compounds were called active. About 11% were inconclusive and are not listed. These entries were drawn from the full list. Potency and affinity values are given separately.
Documented max activity across a set of compounds

Field: example entries. Status: answers known.
O=C(NC1CCCC1)N1CCCCN2[C@@H](CO)[C@@H](c3ccc(-c4cccnc4)cc3)[C@@H]2C1
33.9% (inactive)
O=C(NCCc1csc(-c2ccccc2)n1)C1CCN(S(=O)(=O)c2ccccc2F)CC1
8.96% [at 0.16 µM] (inactive)
CC(C)OCCCNC(=O)CC1Nc2c3ccccc3nc(=S)n2C1=O (centres undefined)
19.5% [at 0.16 µM] (inactive)
Cc1ccc2c(c1C)-n1cccc1C1(CCN(C(=O)c3ccccc3C(F)(F)F)CC1)N2
-6.6% [at 5 µM] (inactive)

Problem: Give the measured max activity of Cc1oc(-c2ccccc2)nc1Cn1nnc(-c2nc(-c3ccc(OC(C)C)cc3)no2)c1C .
Result: -7.48% [at 5 µM] (inactive)

Problem: Give the measured max activity of N#C[C@H]1[C@H](c2ccc(C#Cc3cccc(F)c3)cc2)[C@@H](CO)N1C(=O)C1CCOCC1 .
Result: 33.1% (inactive)

Problem: Give the measured max activity of Cc1ccc(S(=O)(=O)N2CCC(C(=O)NCCc3csc(-c4ccccc4)n3)CC2)cc1C .
Result: 12.1% [at 1.35 µM] (inactive)

Problem: Give the measured max activity of CCS(=O)(=O)N1CCC(C(=O)NCCc2csc(-c3ccccc3)n2)CC1 .
Result: -17% (inactive)

Problem: Give the measured max activity of N#C[C@@H]1[C@H](c2ccc(C#Cc3cccc(F)c3)cc2)[C@H](CO)N1C(=O)C1CCOCC1 .
Result: 26.4% [at 10 µM] (inactive)

Problem: Give the measured max activity of COCC#Cc1ccc([C@@H]2[C@H]3CN(C(=O)C4CCCCC4)CC(=O)N3[C@H]2CO)cc1 .
Result: 27.9% (inactive)

Problem: Give the measured max activity of O=C(Cc1ccccc1Cl)N1CCC2(CC1)Nc1ccccc1-n1cccc12 .
Result: 15.3% [at 10 µM] (inactive)

Problem: Give the measured max activity of COc1ccc(-c2nc(Nc3ccc(C)c(Cl)c3)c3ccccc3n2)cc1 .
Result: 13% [at 0.35 µM] (inactive)

Problem: Give the measured max activity of COc1ccc(-c2nc(Nc3cccc(C(F)(F)F)c3)c3ccccc3n2)cc1 .
Result: -7.84% [at 5 µM] (inactive)

Problem: Give the measured max activity of Cc1ccc(S(=O)(=O)N2CCC(C(=O)NCCc3csc(-c4ccccc4)n3)CC2)c(C)c1 .
Result: 19.2% [at 0.35 µM] (inactive)

Problem: Give the measured max activity of COc1ccc(-c2nc(Nc3cc(C)ccc3C)c3ccccc3n2)cc1 .
Result: 25.6% (inactive)

Problem: Give the measured max activity of Cc1ccccc1-c1nc(CN2CCN(C(=O)NC3CCCCC3)CC2)c(C)o1 .
Result: -12% [at 0.35 µM] (inactive)

Problem: Give the measured max activity of Cc1cccc(-c2nc(CN3CCc4c(sc5c4CCCC5)C3c3ccccc3)c(C)o2)c1 (centres undefined) .
Result: 18.5% (inactive)

Problem: Give the measured max activity of COCC#Cc1ccc([C@@H]2[C@@H](CO)N3C(=O)CN(C(=O)c4ccncc4)C[C@@H]23)cc1 .
Result: 31.2% (inactive)

Problem: Give the measured max activity of COCC#Cc1ccc([C@H]2[C@@H](CO)N3C(=O)CN(C(=O)C4CCCCC4)C[C@@H]23)cc1 .
Result: 51.9% (inactive)
